Sourced from ChEMBL document CHEMBL4831478

# tested_system: Estrogen receptor (Homo sapiens, UniProt P03372)
# Sequence (P03372 whole entry): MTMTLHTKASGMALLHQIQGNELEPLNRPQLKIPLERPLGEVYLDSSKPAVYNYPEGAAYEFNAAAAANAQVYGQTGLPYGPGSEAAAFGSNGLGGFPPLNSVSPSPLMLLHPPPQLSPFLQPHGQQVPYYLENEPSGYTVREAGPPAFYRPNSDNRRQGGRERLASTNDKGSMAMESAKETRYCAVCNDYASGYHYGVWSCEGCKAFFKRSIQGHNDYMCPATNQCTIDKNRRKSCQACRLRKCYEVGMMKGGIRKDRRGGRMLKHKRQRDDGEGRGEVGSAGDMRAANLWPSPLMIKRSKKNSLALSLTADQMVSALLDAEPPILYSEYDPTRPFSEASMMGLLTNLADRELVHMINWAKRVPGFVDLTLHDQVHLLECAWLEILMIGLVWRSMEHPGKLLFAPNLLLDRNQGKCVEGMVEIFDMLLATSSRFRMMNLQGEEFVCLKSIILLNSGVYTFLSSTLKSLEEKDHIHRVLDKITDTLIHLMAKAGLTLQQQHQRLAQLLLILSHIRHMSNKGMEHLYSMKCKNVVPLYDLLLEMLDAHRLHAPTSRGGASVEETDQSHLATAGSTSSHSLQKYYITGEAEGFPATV
# test_protocol: Induction of ERalpha degradation in human MCF7 cells assessed as decrease in ERalpha protein expression incubated for 48 hrs under hormone-deprived medium by Western blot analysis
# Format: cell-based

molecule	DC50 [nM]
Cc1ncsc1-c1ccc([C@H](C)NC(=O)[C@@H]2C[C@@H](O)CN2C(=O)[C@@H](NC(=O)COCc2cn(CCOc3ccc(Cn4c(-c5ccc(O)cc5)c(C)c5cc(O)ccc54)cc3)nn2)C(C)(C)C)cc1	20
Oc1cccc(CN(CC2(c3ccccc3F)CCCC2)c2ccc(OCCN3CCCCC3)cc2)c1Cl	15
Cc1ncsc1-c1ccc([C@H](C)NC(=O)[C@@H]2C[C@@H](O)CN2C(=O)[C@@H](NC(=O)COCCOCCOCc2cn(CCOc3ccc(Cn4c(-c5ccc(O)cc5)c(C)c5cc(O)ccc54)cc3)nn2)C(C)(C)C)cc1	9
Cc1ncsc1-c1ccc([C@H](C)NC(=O)[C@@H]2C[C@@H](O)CN2C(=O)[C@@H](NC(=O)COCCOCc2cn(CCOc3ccc(Cn4c(-c5ccc(O)cc5)c(C)c5cc(O)ccc54)cc3)nn2)C(C)(C)C)cc1	20
Cc1c(-c2ccc(O)cc2)n(Cc2ccc(OCCn3cc(COCCOc4cccc5c4C(=O)N(C4CCC(=O)NC4=O)C5=O)nn3)cc2)c2ccc(O)cc12 (stereo not given)	2500

====

# Tested on: MCF7
# test_protocol: Antiproliferative activity against human MCF7 cells assessed as growth inhibition preincubated with estradiol for 30 mins followed by compound addition and measured after 7 days by CellTiter-Glo assay
# Assay type: functional
# condition_parameters: MCF7, 168 h, time 7 day
measurement_name: GI50 (µM)

compound_smiles	operator_symbol	reported_result
CN(Cc1cccc(O)c1Cl)CC1(c2ccccc2F)CCCC1	>	10
CN(Cc1cccc(O)c1Cl)CC1(c2ccccc2OCCN2CCCCC2)CCCC1	=	3.14
Cc1ncsc1-c1ccc([C@@H](C)NC(=O)[C@@H]2C[C@@H](O)CN2C(=O)[C@H](NC(=O)COCCOCc2cn(CCOc3ccc(N(Cc4cccc(O)c4Cl)CC4(c5ccccc5F)CCCC4)cc3)nn2)C(C)(C)C)cc1	=	0.03
Oc1cccc(CN(CCOCCN2CCCCC2)CC2(c3ccccc3F)CCCC2)c1Cl	=	3.1

====

# test_protocol: Microsomal stability in mouse liver microsomes assessed as intrinsic clearance measured upto 60 mins
# Type: ADME, Microsome
# condition_parameters: read-out: CLH
Listing: microsomal CLint of selected compounds
measurement_name: microsomal CLint

compound_smiles	measurement_name	reported_result
Cc1ncsc1-c1ccc([C@@H](C)NC(=O)[C@@H]2C[C@@H](O)CN2C(=O)[C@H](NC(=O)COCCOCc2cn(CCOc3ccc(N(Cc4cccc(O)c4Cl)CC4(c5ccccc5F)CCCC4)cc3)nn2)C(C)(C)C)cc1	microsomal CLint	249 µL/min/mg
Cc1ncsc1-c1ccc([C@H](C)NC(=O)[C@@H]2C[C@@H](O)CN2C(=O)[C@H](NC(=O)COCc2cn(CCOc3ccc(N(Cc4cccc(O)c4Cl)CC4(c5ccccc5F)CCCC4)cc3)nn2)C(C)(C)C)cc1	microsomal CLint	199 µL/min/mg

====

# test_protocol: Cmax in CD1 mouse at 10 mg/kg, sc administered as single dose […]
# Format: ADME, organism-based
# Set-up: route subcutaneous, dose 10 mg/kg
# condition_parameters: in vivo
Known Cmax of a selection of molecules

compound_smiles	Cmax [nM]
Cc1ncsc1-c1ccc([C@H](C)NC(=O)[C@@H]2C[C@@H](O)CN2C(=O)[C@H](NC(=O)COCc2cn(CCOc3ccc(N(Cc4cccc(O)c4Cl)CC4(c5ccccc5F)CCCC4)cc3)nn2)C(C)(C)C)cc1	1500
Cc1ncsc1-c1ccc([C@@H](C)NC(=O)[C@@H]2C[C@@H](O)CN2C(=O)[C@H](NC(=O)COCCOCc2cn(CCOc3ccc(N(Cc4cccc(O)c4Cl)CC4(c5ccccc5F)CCCC4)cc3)nn2)C(C)(C)C)cc1	2130

====

As shown below, each of these molecules has a reported pIC50 value.
# tested_system: Estrogen receptor (Homo sapiens, UniProt P03372, S463P)
# Sequence (P03372 whole entry S463P): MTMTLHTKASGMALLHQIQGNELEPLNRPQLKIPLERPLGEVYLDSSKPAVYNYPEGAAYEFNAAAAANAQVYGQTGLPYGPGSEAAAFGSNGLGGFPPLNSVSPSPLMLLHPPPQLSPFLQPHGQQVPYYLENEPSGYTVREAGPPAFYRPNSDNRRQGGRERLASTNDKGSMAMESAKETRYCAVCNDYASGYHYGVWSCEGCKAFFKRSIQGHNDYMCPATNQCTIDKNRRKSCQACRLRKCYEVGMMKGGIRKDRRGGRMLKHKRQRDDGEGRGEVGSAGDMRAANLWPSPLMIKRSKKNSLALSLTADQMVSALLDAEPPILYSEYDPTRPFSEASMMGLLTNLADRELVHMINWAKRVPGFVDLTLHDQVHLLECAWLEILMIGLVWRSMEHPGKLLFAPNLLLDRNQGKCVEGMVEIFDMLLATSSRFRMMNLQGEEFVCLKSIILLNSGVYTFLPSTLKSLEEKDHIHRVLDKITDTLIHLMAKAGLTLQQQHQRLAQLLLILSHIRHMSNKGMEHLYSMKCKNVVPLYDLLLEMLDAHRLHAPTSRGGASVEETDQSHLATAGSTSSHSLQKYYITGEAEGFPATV
# test_protocol: Binding affinity to ERalpha S463P mutant (unknown origin) expressed in Escherichia coli preincubated for 15 mins followed by ligand addition and measured after 1 hr by fluorescent polarization assay
pIC50: −log10 of the molar value.
measurement_name: pIC50

compound_smiles	measurement_name	reported_result
CN(Cc1cccc(O)c1Cl)CC1(c2ccccc2F)CCCC1	pIC50	7.68
CN[C@@H](C)C(=O)N[C@H](C(=O)N1CCC[C@H]1c1nc(C(=O)c2cccc(OCCOCc3cn(CCOc4ccc(Cn5c(-c6ccc(O)cc6)c(C)c6cc(O)ccc65)cc4)nn3)c2)cs1)C1CCCCC1	pIC50	7.62
Cc1ncsc1-c1ccc([C@@H](C)NC(=O)[C@@H]2C[C@@H](O)CN2C(=O)[C@H](NC(=O)COCCOCc2cn(CCOc3ccc(N(Cc4cccc(O)c4Cl)CC4(c5ccccc5F)CCCC4)cc3)nn2)C(C)(C)C)cc1	pIC50	6.69

====

# tested_system: Estrogen receptor (Homo sapiens, UniProt P03372)
# test_protocol: Induction of ERalpha degradation in human MCF7 cells assessed as decrease in ERalpha protein expression incubated for 48 hrs by Western blot analysis
# Type: cell-based
measurement_name: DC50 (nM)

molecule	measurement_name	result_unit	reported_result
Cc1ncsc1-c1ccc(CNC(=O)N2C[C@H](O)CC2C(=O)[C@H](NC(=O)C2(F)CC2)C(C)(C)C)c(OCCOCc2cn(CCOc3ccc(Cn4c(-c5ccc(O)cc5)c(C)c5cc(O)ccc54)cc3)nn2)c1 (some centres undefined)	DC50	nM	27
CN[C@@H](C)C(=O)N[C@H](C(=O)N1CCC[C@H]1c1nc(C(=O)c2cccc(OCCOCc3cn(CCOc4ccc(Cn5c(-c6ccc(O)cc6)c(C)c6cc(O)ccc65)cc4)nn3)c2)cs1)C1CCCCC1	DC50	nM	174
Cc1ncsc1-c1ccc([C@@H](C)NC(=O)[C@@H]2C[C@@H](O)CN2C(=O)[C@H](NC(=O)COCCOCc2cn(CCOc3ccc(N(Cc4cccc(O)c4Cl)CC4(c5ccccc5F)CCCC4)cc3)nn2)C(C)(C)C)cc1	DC50	nM	6
Cc1ncsc1-c1ccc([C@H](C)NC(=O)[C@@H]2C[C@@H](O)CN2C(=O)[C@H](NC(=O)COCc2cn(CCOc3ccc(N(Cc4cccc(O)c4Cl)CC4(c5ccccc5F)CCCC4)cc3)nn2)C(C)(C)C)cc1	DC50	nM	4.2

====

# test_protocol: Cytotoxicity against human MCF-10A cells assessed as growth inhibition incubated for 7 days by CellTiter-Glo assay
# Assay type: cell-based
# condition_parameters: time 7 day

compound_smiles	GI50 at 168 h
Cc1ncsc1-c1ccc([C@@H](C)NC(=O)[C@@H]2C[C@@H](O)CN2C(=O)[C@H](NC(=O)COCCOCc2cn(CCOc3ccc(N(Cc4cccc(O)c4Cl)CC4(c5ccccc5F)CCCC4)cc3)nn2)C(C)(C)C)cc1	> 10 µM

====

Below, each entry is listed with its recorded IC50.
# tested_system: Estrogen receptor (Homo sapiens, UniProt P03372, D538G)
# Sequence (P03372 whole entry D538G): as the sequence (P03372 whole entry S463P) above, with P463S, D538G counted along it
# test_protocol: Binding affinity to ERalpha D538G mutant (unknown origin) expressed in Escherichia coli preincubated for 15 mins followed by ligand addition and measured after 1 hr by fluorescent polarization assay
measurement_name: IC50 (nM)

molecule	result_unit	reported_result
Cc1ncsc1-c1ccc([C@@H](C)NC(=O)[C@@H]2C[C@@H](O)CN2C(=O)[C@H](NC(=O)COCCOCc2cn(CCOc3ccc(N(Cc4cccc(O)c4Cl)CC4(c5ccccc5F)CCCC4)cc3)nn2)C(C)(C)C)cc1	nM	517
CN(Cc1cccc(O)c1Cl)CC1(c2ccccc2F)CCCC1	nM	7.2
Cc1ncsc1-c1ccc([C@H](C)NC(=O)[C@@H]2C[C@@H](O)CN2C(=O)[C@@H](NC(=O)COCCOCCOCc2cn(CCOc3ccc(Cn4c(-c5ccc(O)cc5)c(C)c5cc(O)ccc54)cc3)nn2)C(C)(C)C)cc1	nM	9.3
Cc1ncsc1-c1ccc(CNC(=O)N2C[C@H](O)CC2C(=O)[C@H](NC(=O)C2(F)CC2)C(C)(C)C)c(OCCOCc2cn(CCOc3ccc(Cn4c(-c5ccc(O)cc5)c(C)c5cc(O)ccc54)cc3)nn2)c1 (stereo not given in full)	nM	29
Cc1ncsc1-c1ccc([C@H](C)NC(=O)[C@@H]2C[C@@H](O)CN2C(=O)[C@H](NC(=O)COCc2cn(CCOc3ccc(N(Cc4cccc(O)c4Cl)CC4(c5ccccc5F)CCCC4)cc3)nn2)C(C)(C)C)cc1	nM	269

====

# tested_system: Estrogen receptor (Homo sapiens, UniProt P03372, S463P)
# test_protocol: Binding affinity to ERalpha S463P mutant (unknown origin) expressed in Escherichia coli preincubated for 15 mins followed by ligand addition and measured after 1 hr by fluorescent polarization assay
pIC50: −log10 of the molar value.
Let's look at some compounds and their measured pIC50.
measurement_name: pIC50

compound	measurement_name	reported_result
Cc1ncsc1-c1ccc(CNC(=O)N2C[C@H](O)CC2C(=O)[C@H](NC(=O)C2(F)CC2)C(C)(C)C)c(OCCOCc2cn(CCOc3ccc(Cn4c(-c5ccc(O)cc5)c(C)c5cc(O)ccc54)cc3)nn2)c1 (stereo partly drawn)	pIC50	7.85
Cc1ncsc1-c1ccc([C@H](C)NC(=O)[C@@H]2C[C@@H](O)CN2C(=O)[C@@H](NC(=O)COCCOCc2cn(CCOc3ccc(Cn4c(-c5ccc(O)cc5)c(C)c5cc(O)ccc54)cc3)nn2)C(C)(C)C)cc1	pIC50	7.74
Cc1ncsc1-c1ccc([C@H](C)NC(=O)[C@@H]2C[C@@H](O)CN2C(=O)[C@@H](NC(=O)COCc2cn(CCOc3ccc(Cn4c(-c5ccc(O)cc5)c(C)c5cc(O)ccc54)cc3)nn2)C(C)(C)C)cc1	pIC50	7.68
